Reported IC50 values for a set of sequences
tested on: HLA-A*02:02
protocol details: IEDB peptide-MHC binding, purified MHC/competitive/radioactivity; bounds were set here for any values at or beyond the usual limits of such assays
conditions: source organism: SARS-CoV1
Number only, in nM; omit the unit.

The cases that follow already have their IC50 on record.
{"sequence input": "ALYKGFQFI", "tested on": "HLA-A*02:02", "IC50 [nM]": 0.53}
{"sequence input": "LLLEWLAEVV", "tested on": "HLA-A*02:02", "IC50 [nM]": 0.31}
{"sequence input": "ALDGVLSTFV", "tested on": "HLA-A*02:02", "IC50 [nM]": 3.3}
{"sequence input": "ALSGVFCGV", "tested on": "HLA-A*02:02", "IC50 [nM]": 1.2}
{"sequence input": "ALLFLMSFTI", "tested on": "HLA-A*02:02", "IC50 [nM]": 0.37}

Please tell me the measured IC50 for TMADLVYAL ; system: HLA-A*02:02.
0.18

Please look at GLSDRVVFV and tell me its recorded IC50 on HLA-A*02:02.
1

Write down the reported IC50 (system: HLA-A*02:02) of YVVVHGYFT
342

GET IC50 where system = HLA-A*02:02 and item = KLMGHFSWWT
64

Report measured IC50 on HLA-A*02:02; entry: YLMCLSPLMA
0.24

====

tested on: HLA-A*02:03
protocol details: IEDB peptide-MHC binding, purified MHC/competitive/radioactivity; bounds were set here for any values at or beyond the usual limits of such assays
conditions: source organism: Vaccinia virus WR
# Lookup of reported log10(IC50) keyed by entry
Use the decimal logarithm of IC50 (nM).

Below, each entry is followed by its recorded log10(IC50) result.
{"sequence input": "TVQEFIFSAL", "endpoint value": 1.95}
{"sequence input": "SIFVSTMPV", "endpoint value": 0.82}
{"sequence input": "VLQQNNSFI", "endpoint value": 2.40}
{"sequence input": "EQYTCNKPYT", "endpoint value": 3.48}
{"sequence input": "PIIYSKAGNI", "endpoint value": 2.14}
{"sequence input": "MMVILPDKI", "endpoint value": 1.20}
{"sequence input": "KINEMVDELV", "endpoint value": 2.69}
{"sequence input": "IVAAVIIMAI", "endpoint value": 3.42}

Write down log10(IC50) measured for item GIKNLKSLL
3.42

Note log10(IC50) for the sequence shown: NMKPNFWSRI
2.29

Fill in reported log10(IC50) for this entry: LVDKEDTDIV
3.23

====

Collected IC50 values appear next to each entry.
tested on: HLA-A*02:02
protocol details: IEDB peptide-MHC binding, cellular MHC/competitive/fluorescence; bounds were set here for any values at or beyond the usual limits of such assays
conditions: source organism: Hepacivirus hominis
Respond numerically; units are µM and should not be typed.

{"sequence input": "LLGLLLLCV", "IC50, µM": 9.77}

# ---- query sequence ----
State its IC50: LLLGLLLLCV
16.9

====

tested on: HLA-A*02:06
protocol details: IEDB peptide-MHC binding, purified MHC/competitive/radioactivity; bounds were set here for any values at or beyond the usual limits of such assays
conditions: source organism: Influenza A virus
pIC50: −log10 of the molar value.
Returns y if the recorded pIC50 is greater than or equal to 7, and n otherwise.

Answered cases to consult:
{"sequence input": "RLIQNSITI", "qualitative label": "n"}
{"sequence input": "VLFQNWGI", "qualitative label": "n"}
{"sequence input": "RTFFLTQGA", "qualitative label": "n"}
{"sequence input": "FNMLSTVLGV", "qualitative label": "y"}
{"sequence input": "NLFEKFFPSS", "qualitative label": "y"}
{"sequence input": "NVMGMIGV", "qualitative label": "n"}
{"sequence input": "YNAELLVLL", "qualitative label": "n"}
{"sequence input": "MQIRGFVYFV", "qualitative label": "y"}
{"sequence input": "GILGFVFTLT", "qualitative label": "n"}
{"sequence input": "VNNAVVMPA", "qualitative label": "n"}

Test whether the sequence CAAMDDFQL records pIC50 of 7 or higher.
n

Is reported pIC50 greater than or equal to 7 here: MLLRSAIGQV
n

Could you tell me if the measured pIC50 of AMDSNTLEL reaches 7 or more?
n

Does pIC50 meet or surpass 7 for NVMGMIGI ?
n

Check the entry LLLIVQALR : does pIC50 equal or exceed 7?
n

// inclusive: pIC50 at least 7? input: YLIRALTL
n

Reported pIC50 at or above 7? ATAGLTHMMI
n

Hi, just wondering whether WSYNAELLVA shows pIC50 of 7 or higher.
y

====

In this section we review reported IC50 values for a set of sequences.
tested on: HLA-A*02:01
protocol details: IEDB peptide-MHC binding, purified MHC/competitive/radioactivity; bounds were set here for any values at or beyond the usual limits of such assays
conditions: source organism: Vaccinia virus WR
Be sure to follow the number with its unit.

// solved cases for IC50 follow
{"sequence input": "TLFGRGVIDT", "IC50": "130 nM"}
{"sequence input": "KLMGTITLNA", "IC50": "12 nM"}
{"sequence input": "FTISMRYQSL", "IC50": "4300 nM"}

Specify IC50 for LLEIHQYPA , system HLA-A*02:01.
98 nM

# lookup: HLA-A*02:01 IC50, key = MAFDISVNA
149 nM

====

tested on: HLA-B*45:01
protocol details: IEDB peptide-MHC binding, cellular MHC/competitive/fluorescence; bounds were set here for any values at or beyond the usual limits of such assays
conditions: source organism: Mammarenavirus guanaritoense
measured attribute: IC50

Item ADKNLIKCS : provide IC50
≥ 70 µM

====

tested on: HLA-A*02:06
protocol details: IEDB peptide-MHC binding, purified MHC/competitive/radioactivity; bounds were set here for any values at or beyond the usual limits of such assays
conditions: source organism: Mammarenavirus guanaritoense
measured attribute: pIC50
Answer as the number alone; pIC50 is minus log10 of concentration in mol/L.

{"sequence input": "TNAEFTFQL", "pIC50": 5.44}

Item WSAIFFTTSL : provide pIC50
5.85

Output measured pIC50 for this item: YCNYTRFWYI
7.09

Report pIC50 for TLVDLCFWS
6.87

Give the reported value of pIC50 for this record: TSVDLNAPV
7.59

// Input: CNYTRFWYI . Output its pIC50 only.
6.59

====

tested on: HLA-A*68:02
protocol details: IEDB peptide-MHC binding, cellular MHC/competitive/fluorescence; bounds were set here for any values at or beyond the usual limits of such assays
conditions: source organism: Mammarenavirus choriomeningitidis
Form field: IC50 (one value per entry).
Provide the reading as a plain figure in µM.

{"sequence input": "LSAEELMSL", "tested on": "HLA-A*68:02", "endpoint value": 5.82}
{"sequence input": "SNSEDLLKAV", "tested on": "HLA-A*68:02", "endpoint value": 43}
{"sequence input": "KCMSAALKNL", "tested on": "HLA-A*68:02", "endpoint value": 43.5}
{"sequence input": "LSYSQTMLL", "tested on": "HLA-A*68:02", "endpoint value": 6.76}

Enter IC50 (test system HLA-A*68:02) for FMLNVSYLC
8.48

====

Below is a list of entries, each paired with its recorded pIC50 value.
tested on: HLA-A*02:01
protocol details: IEDB peptide-MHC binding, purified MHC/competitive/radioactivity; bounds were set here for any values at or beyond the usual limits of such assays
conditions: source organism: Mammarenavirus choriomeningitidis
# log scale: pIC50 equals minus log10 of the concentration in mol/L

{"sequence input": "FSTSAYLISI", "measured attribute": "pIC50", "endpoint value": 8.05}

Let us examine a further case.
Supply pIC50 value. Item: ALMDLLMFS
8.62

====

tested on: HLA-A*02:06
protocol details: IEDB peptide-MHC binding, cellular MHC/competitive/fluorescence; bounds were set here for any values at or beyond the usual limits of such assays
conditions: source organism: Vaccinia virus WR
measured attribute: pIC50
Recall that pIC50 is obtained by taking minus log10 of the concentration measured in molar.

The examples below pair each entry with its known result.
{"sequence input": "LLENKSLTIL", "tested on": "HLA-A*02:06", "endpoint value": 5.13}
{"sequence input": "LVITYCLVT", "tested on": "HLA-A*02:06", "endpoint value": 5.10}
{"sequence input": "DAMIHKTYI", "tested on": "HLA-A*02:06", "endpoint value": 5.02}
{"sequence input": "IAMLKSKNI", "tested on": "HLA-A*02:06", "endpoint value": 4.97}
{"sequence input": "YVKNGTKGKL", "tested on": "HLA-A*02:06", "endpoint value": 4.55}

Identify pIC50 associated with the sequence DLNRMPTDML
4.32

Item GIIITVGML : provide pIC50
4.73

Determine from records and report pIC50 for LIKTLSPAHL
4.99

Could you please provide reported pIC50 for DMDFDLNIFM ? Thanks!
5.27

Please give the documented pIC50 of NASKTINAL
5.21

Consider the sequence STKADAVVA . State its measured pIC50.
4.79

Indicate its recorded pIC50; the sequence in question is GIDTSNNIA
4.60

For the sequence TAATKRYPGV , give its measured pIC50 value.
5.25

Check the records and state pIC50 for YTEAAAATCA
5.15

Using known records, supply pIC50 for ELKDLLNVT
4.41

// Input: DVGCLLTDTI . Output its pIC50 only.
5.00

Report measured pIC50; entry is SLCPTKKLV
4.92

Look up and report measured pIC50 for this entry: IINSVSIIL
4.59
